FYI, the data here is from patent US8895585B2.

TARGET SYSTEM: glutathione S-transferase (GST)-fused full-length human Syk protein (Homo sapiens, UniProt P43405)
Construct: (GST)-fused full-length human Syk protein; GST (glutathione S-transferase); purchased Carna Biosciences
PROTOCOL DESCRIPTION: Syk enzyme assay
Assay type: biochemical
TEST SETTINGS: Syk enzyme assay, Test Example 1; read-out: IC50 of Syk-inhibitory activity
Description: A glutathione S-transferase (GST)-fused full-length human Syk protein (Carna Biosciences), which had been generated using a Baculovirus expression system, was used in the Syk enzyme assay. 15 μl of a reaction solution (1.2 ng Syk, 20 mM HEPES, 10 mM MgCl2, 50 mM NaCl, 2 mM DTT, 0.05% BSA, pH 7.0) containing a Syk protein and a predetermined concentration of a test compound was shaken for 2 minutes, and it was then left at rest at room temperature for 13 minutes. […]
MEASUREMENT TYPE: IC50

| MOLECULE | MEASUREMENT |
| --- | --- |
| NC(=O)c1cc(F)c(N[C@@H]2CCCC[C@@H]2N)nc1Nc1ccc(N2CC3(COC3)C2)nc1 | 10 to 50 nM |
| NC(=O)c1cc(F)c(N[C@@H]2CCCC[C@@H]2N)nc1Nc1ccc2c(cnn2CC2CC2)c1 (relative stereo) | 10 to 50 nM |
| CCCC[C@@H](Nc1nc(Nc2ccnc(OCCOC)c2)c(C(N)=O)cc1F)[C@H](C)N | < 10 nM |
| NC(=O)c1cc(F)c(N[C@@H]2CCCC[C@@H]2N)nc1Nc1cccc2ncccc12 | < 10 nM |

Bench note: what IC50 did COc1cc(Nc2nc(N[C@H](CC3CC3)[C@H](C)N)c(F)cc2C(N)=O)cc(OC)n1 show?
< 10 nM

Record: C[C@H](N)[C@@H](CC1CC1)Nc1nc(Nc2ccc3c(c2)c(N2CCOCC2)nn3C)c(C(N)=O)cc1F
< 10 nM

Okay, and CCc1nn(C)c2ccc(Nc3nc(N[C@H](CC4CC4)[C@H](C)N)c(F)cc3C(N)=O)cc12 ?
< 10 nM

// same read-out, input: NC(=O)c1cc(F)c(N[C@@H]2CCCC[C@@H]2N)nc1Nc1cncc2ccccc12
< 10 nM

For CC[C@@H](Nc1nc(Nc2cc(OC)nc(OC)c2)c(C(N)=O)cc1F)[C@H](C)N then?
< 10 nM

====

TARGET SYSTEM: glutathione S-transferase (GST)-fused full-length human Syk protein (Homo sapiens)
Construct: (GST)-fused full-length human Syk protein; GST (glutathione S-transferase); purchased Carna Biosciences
PROTOCOL DESCRIPTION: Syk enzyme assay
Format: biochemical
TEST SETTINGS: Syk enzyme assay, Test Example 1; read-out: IC50 of Syk-inhibitory activity
MEASUREMENT TYPE: IC50

Example entries begin here.
| COMPOUND | IC50 |
| --- | --- |
| COCCOc1cc(Nc2nc(N[C@H](C3CC3)[C@H](C)N)c(F)cc2C(N)=O)ccn1 | 10 to 50 nM |
| COc1ccc(-c2cc(Nc3nc(NC4CCCCC4N)c(F)cc3C(N)=O)ccn2)c(OC)c1 (centres unmarked) | 50 to 100 nM |
| NC(=O)c1cc(F)c(N[C@@H]2CCCC[C@@H]2N)nc1Nc1ccc2cn[nH]c2c1 (relative stereo) | < 10 nM |

Identify the measured IC50 of NC(=O)c1cc(F)c(NC2CCCCC2N)nc1Nc1cncc(NC(=O)c2ccccc2Cl)c1 (centres unmarked) for glutathione S-transferase (GST)-fused full-length human Syk protein (Homo sapiens).
10 to 50 nM

Query NC(=O)c1cc(F)c(N[C@@H]2CCCC[C@@H]2N)nc1Nc1cnc(-n2cccn2)c(-n2cccn2)c1 next
50 to 100 nM

Please answer likewise for Cc1ccccc1C(=O)Nc1cncc(Nc2nc(NC3CCCCC3N)c(F)cc2C(N)=O)c1 (centres unmarked)
50 to 100 nM

// next record CCCC[C@H](CN)Nc1nc(Nc2ccc3c(cnn3CC)c2)c(C(N)=O)cc1F
< 10 nM

Item: Cc1nn(CC(F)F)c2ccc(Nc3nc(N[C@H](C4CC4)[C@H](C)N)c(F)cc3C(N)=O)cc12
< 10 nM

Repeat for the following compound: NC(=O)c1cc(F)c(NCc2ccccn2)nc1Nc1ccc2ncccc2c1
100 to 1000 nM

Another compound to look at: NC(=O)c1cc(F)c(N[C@@H]2CCCC[C@@H]2N)nc1Nc1ccc2ncccc2c1
< 10 nM

What would you report for CCC[C@@H](Nc1nc(Nc2cncc(C3CC3)c2)c(C(N)=O)cc1F)[C@H](C)N ?
< 10 nM
